- Test system: Candida albicans
- protocol.details: Antifungal activity against Candida albicans CBS 8837 assessed as reduction in fungal growth incubated for 24 hrs by CLSI based serial microbroth dilution method
- Format: functional
Consider the following molecules and their measured MIC readings.
measurement.name: MIC (µg/mL)

O=c1c2sc(=S)n(-c3ccc(F)cc3)c2ncn1CCN1CCN(CC(O)(Cn2cncn2)c2ccc(F)cc2F)CC1 (stereo unspecified)	32
Cc1ccc(-n2c(=S)sc3c(=O)n(CCN4CCN(CC(O)(Cn5cncn5)c5ccc(F)cc5F)CC4)cnc32)cc1 (stereo unspecified)	16
Cc1ccc(-n2c(=S)sc3c(=O)n(CCCN4CCN(CC(O)(Cn5cncn5)c5ccc(F)cc5F)CC4)cnc32)cc1 (stereo unspecified)	16
O=c1c2sc(=S)n(-c3ccc(F)cc3)c2ncn1CCCN1CCN(CC(O)(Cn2cncn2)c2ccc(F)cc2F)CC1 (stereo unspecified)	16
O=c1c2sc(=S)n(-c3ccc(Cl)cc3)c2ncn1CCCN1CCN(CC(O)(Cn2cncn2)c2ccc(F)cc2F)CC1 (stereo unspecified)	16
OC(Cn1cncn1)(Cn1cncn1)c1ccc(F)cc1F	128

----------
- Tested on: Candida albicans
- protocol.details: Antifungal activity against Candida albicans 8R assessed as reduction in fungal growth incubated for 48 hrs by CLSI based serial microbroth dilution method
- Type: functional
measurement.name: MIC (µg/mL)

Cc1ccc(-n2c(=S)sc3c(=O)n(CCCN4CCN(CC(O)(Cn5cncn5)c5ccc(F)cc5F)CC4)cnc32)cc1 (stereo unspecified)	32
OC(Cn1cncn1)(Cn1cncn1)c1ccc(F)cc1F	128
Cc1ccc(-n2c(=S)sc3c(=O)n(CCN4CCN(CC(O)(Cn5cncn5)c5ccc(F)cc5F)CC4)cnc32)cc1 (stereo unspecified)	32
O=c1c2sc(=S)n(-c3ccc(F)cc3)c2ncn1CCN1CCN(CC(O)(Cn2cncn2)c2ccc(F)cc2F)CC1 (stereo unspecified)	32
O=c1c2sc(=S)n(-c3ccc(F)cc3)c2ncn1CCCN1CCN(CC(O)(Cn2cncn2)c2ccc(F)cc2F)CC1 (stereo unspecified)	32
O=c1c2sc(=S)n(-c3ccc(Cl)cc3)c2ncn1CCCN1CCN(CC(O)(Cn2cncn2)c2ccc(F)cc2F)CC1 (stereo unspecified)	32

----------
Catalogue of molecules with associated MIC
- System: Microsporum canis
- protocol.details: Antifungal activity against Microsporum canis B-200 assessed as reduction in fungal growth incubated for 48 hrs by CLSI based serial microbroth dilution method
- Format: functional
measurement.name: MIC (µg/mL)

Cc1ccc(-n2c(=S)sc3c(=O)n(CCCN4CCN(CC(O)(Cn5cncn5)c5ccc(F)cc5F)CC4)cnc32)cc1 (stereo unspecified)	32
O=c1c2sc(=S)n(-c3ccc(F)cc3)c2ncn1CCCN1CCN(CC(O)(Cn2cncn2)c2ccc(F)cc2F)CC1 (stereo unspecified)	4
Cc1ccc(-n2c(=S)sc3c(=O)n(CCN4CCN(CC(O)(Cn5cncn5)c5ccc(F)cc5F)CC4)cnc32)cc1 (stereo unspecified)	32
O=c1c2sc(=S)n(-c3ccc(F)cc3)c2ncn1CCN1CCN(CC(O)(Cn2cncn2)c2ccc(F)cc2F)CC1 (stereo unspecified)	32
OC(Cn1cncn1)(Cn1cncn1)c1ccc(F)cc1F	32
O=c1c2sc(=S)n(-c3ccc(Cl)cc3)c2ncn1CCCN1CCN(CC(O)(Cn2cncn2)c2ccc(F)cc2F)CC1 (stereo unspecified)	32

----------
- Test system: Candida parapsilosis
- protocol.details: Antifungal activity against Candida parapsilosis ATCC 22019 assessed as reduction in fungal growth incubated for 48 hrs by CLSI based serial microbroth dilution method
- Type: functional
- measurement.setup: Lodderomyces parapsilosis
Collected MIC values appear next to each entry.
measurement.name: MIC (µg/mL)

Cc1ccc(-n2c(=S)sc3c(=O)n(CCCN4CCN(CC(O)(Cn5cncn5)c5ccc(F)cc5F)CC4)cnc32)cc1 (stereo unspecified)	0.5
O=c1c2sc(=S)n(-c3ccc(F)cc3)c2ncn1CCN1CCN(CC(O)(Cn2cncn2)c2ccc(F)cc2F)CC1 (stereo unspecified)	1
O=c1c2sc(=S)n(-c3ccc(F)cc3)c2ncn1CCCN1CCN(CC(O)(Cn2cncn2)c2ccc(F)cc2F)CC1 (stereo unspecified)	0.125
Cc1ccc(-n2c(=S)sc3c(=O)n(CCN4CCN(CC(O)(Cn5cncn5)c5ccc(F)cc5F)CC4)cnc32)cc1 (stereo unspecified)	0.5
OC(Cn1cncn1)(Cn1cncn1)c1ccc(F)cc1F	4
O=c1c2sc(=S)n(-c3ccc(Cl)cc3)c2ncn1CCCN1CCN(CC(O)(Cn2cncn2)c2ccc(F)cc2F)CC1 (stereo unspecified)	0.25

----------
- System: Pichia kudriavzevii
- protocol.details: Antifungal activity against Candida krusei 432M assessed as reduction in fungal growth incubated for 24 hrs by CLSI based serial microbroth dilution method
- Format: functional
measurement.name: MIC (µg/mL)

O=c1c2sc(=S)n(-c3ccc(Cl)cc3)c2ncn1CCCN1CCN(CC(O)(Cn2cncn2)c2ccc(F)cc2F)CC1 (stereo unspecified)	16
O=c1c2sc(=S)n(-c3ccc(F)cc3)c2ncn1CCCN1CCN(CC(O)(Cn2cncn2)c2ccc(F)cc2F)CC1 (stereo unspecified)	8
Cc1ccc(-n2c(=S)sc3c(=O)n(CCN4CCN(CC(O)(Cn5cncn5)c5ccc(F)cc5F)CC4)cnc32)cc1 (stereo unspecified)	16
O=c1c2sc(=S)n(-c3ccc(F)cc3)c2ncn1CCN1CCN(CC(O)(Cn2cncn2)c2ccc(F)cc2F)CC1 (stereo unspecified)	32
Cc1ccc(-n2c(=S)sc3c(=O)n(CCCN4CCN(CC(O)(Cn5cncn5)c5ccc(F)cc5F)CC4)cnc32)cc1 (stereo unspecified)	16
OC(Cn1cncn1)(Cn1cncn1)c1ccc(F)cc1F [FLUCONAZOLE]	32

----------
Overview of recorded MIC for various compounds
- Tested on: Candida albicans
- protocol.details: Antifungal activity against Candida albicans ATCC 24433 assessed as reduction in fungal growth incubated for 24 hrs by CLSI based serial microbroth dilution method
- Format: functional
measurement.name: MIC (µg/mL)

O=c1c2sc(=S)n(-c3ccc(Cl)cc3)c2ncn1CCCN1CCN(CC(O)(Cn2cncn2)c2ccc(F)cc2F)CC1 (stereo unspecified)	16
O=c1c2sc(=S)n(-c3ccc(F)cc3)c2ncn1CCN1CCN(CC(O)(Cn2cncn2)c2ccc(F)cc2F)CC1 (stereo unspecified)	8
Cc1ccc(-n2c(=S)sc3c(=O)n(CCCN4CCN(CC(O)(Cn5cncn5)c5ccc(F)cc5F)CC4)cnc32)cc1 (stereo unspecified)	16
OC(Cn1cncn1)(Cn1cncn1)c1ccc(F)cc1F	4
O=c1c2sc(=S)n(-c3ccc(F)cc3)c2ncn1CCCN1CCN(CC(O)(Cn2cncn2)c2ccc(F)cc2F)CC1 (stereo unspecified)	8
Cc1ccc(-n2c(=S)sc3c(=O)n(CCN4CCN(CC(O)(Cn5cncn5)c5ccc(F)cc5F)CC4)cnc32)cc1 (stereo unspecified)	8

----------
- Test system: Trichophyton rubrum
- protocol.details: Antifungal activity against Trichophyton rubrum 2002 assessed as reduction in fungal growth incubated for 24 hrs by CLSI based serial microbroth dilution method
- Assay type: functional
measurement.name: MIC (µg/mL)

Cc1ccc(-n2c(=S)sc3c(=O)n(CCCN4CCN(CC(O)(Cn5cncn5)c5ccc(F)cc5F)CC4)cnc32)cc1 (stereo unspecified)	32
O=c1c2sc(=S)n(-c3ccc(F)cc3)c2ncn1CCCN1CCN(CC(O)(Cn2cncn2)c2ccc(F)cc2F)CC1 (stereo unspecified)	32
O=c1c2sc(=S)n(-c3ccc(Cl)cc3)c2ncn1CCCN1CCN(CC(O)(Cn2cncn2)c2ccc(F)cc2F)CC1 (stereo unspecified)	16
O=c1c2sc(=S)n(-c3ccc(F)cc3)c2ncn1CCN1CCN(CC(O)(Cn2cncn2)c2ccc(F)cc2F)CC1 (stereo unspecified)	32
OC(Cn1cncn1)(Cn1cncn1)c1ccc(F)cc1F	64
Cc1ccc(-n2c(=S)sc3c(=O)n(CCN4CCN(CC(O)(Cn5cncn5)c5ccc(F)cc5F)CC4)cnc32)cc1 (stereo unspecified)	32

----------
- protocol.details: 1-octanol/aqueous buffer distribution coefficient, logP of the compound at pH 7.4
- Format: physicochemical
measurement.name: logD

Cc1ccc(-n2c(=S)sc3c(=O)n(CC(=O)NCC(O)(Cn4cncn4)c4ccc(F)cc4F)cnc32)cc1 (stereo not given)	1.27
COc1ccccc1-n1c(=S)sc2c(=O)n(CC(=O)NCC(O)(Cn3cncn3)c3ccc(F)cc3F)cnc21 (stereo not given)	0.8
O=c1c2sc(=S)n(-c3ccc(F)cc3)c2ncn1CC(O)(Cn1cncn1)c1ccc(F)cc1F (stereo not given)	0.47
O=C(Cn1cnc2c(sc(=S)n2-c2ccc(F)cc2)c1=O)NCC(O)(Cn1cncn1)c1ccc(F)cc1F (stereo not given)	0.79
Cc1ccc(-n2c(=S)sc3c(=O)n(CC(O)(Cn4cncn4)c4ccc(F)cc4F)cnc32)cc1 (stereo not given)	0.79
Cc1ccc(-n2c(=S)sc3c(=O)n(CCCN4CCN(CC(O)(Cn5cncn5)c5ccc(F)cc5F)CC4)cnc32)cc1 (stereo not given)	4.1
O=C(Cn1cnc2c(sc(=S)n2-c2ccc(Cl)cc2)c1=O)NCC(O)(Cn1cncn1)c1ccc(F)cc1F (stereo not given)	1.16
COc1ccccc1-n1c(=S)sc2c(=O)n(CC(O)(Cn3cncn3)c3ccc(F)cc3F)cnc21 (stereo not given)	1.19
Cc1ccc(-n2c(=S)sc3c(=O)n(CCN4CCN(CC(O)(Cn5cncn5)c5ccc(F)cc5F)CC4)cnc32)cc1 (stereo not given)	2.9
COc1ccccc1-n1c(=S)sc2c(=O)n(CC(O)CN3CCN(CC(O)(Cn4cncn4)c4ccc(F)cc4F)CC3)cnc21 (stereo not given)	2.91
